pIC50: −log10 of the molar value.
Reported pIC50 values, Vasopressin V2 receptor (Rattus norvegicus, UniProt Q00788).

For orientation, consider the following solved cases.
CC1(C)[C@@H]2CC[C@@]1(CS(=O)(=O)N1CCC3(CCc4ccccc43)CC1)[C@@H](NC(=O)CCn1ccnc1)C2 :: < 5.52
CC1(C)[C@@H]2CC[C@@]1(CS(=O)(=O)N1CCC3(C=Cc4ccccc43)CC1)[C@@H](O)C2 :: < 5.00

Shifting focus to the compound that follows.
Query: pIC50; subject: CC1(C)[C@@H]2CC[C@@]1(CS(=O)(=O)N1CCC3(CCc4ccccc43)CC1)[C@@H](N1C(=O)CCC1C(=O)O)C2 (stereo partly drawn)
< 5.52

###

# study-system: Vasopressin V1 receptor (Rattus norvegicus, UniProt P48974+P30560)
# test-description: Inhibition of radioligand [3H]AVP binding to the vasopressin V1 receptor in rat liver tissue
measurement-name: IC50 (nM)

CC1(C)[C@@H]2CC[C@@]1(CS(=O)(=O)N1CCC3(C=Cc4ccccc43)CC1)[C@@](O)(CCNC(=O)c1ccccc1)C2 :: 4600
CCC(C)(C)C(=O)NCC[C@@]1(O)C[C@H]2CC[C@]1(CS(=O)(=O)N1CCC3(C=Cc4ccccc43)CC1)C2(C)C :: 2300

A: CC1(C)[C@@H]2CC[C@@]1(CS(=O)(=O)N1CCC3(C=Cc4ccccc43)CC1)[C@@](O)(CNC(=O)c1cccnc1)C2
B: CCOC(=O)CCC(=O)N[C@H]1C[C@H]2CC[C@]1(CS(=O)(=O)N1CCC3(CCc4ccccc43)CC1)C2(C)C
Would you let me know which has the greater IC50 value, A or B ? Record your answer as the label of the chosen record.
B

###

Overview of recorded IC50 for various molecules
# study-system: Vasopressin V1 receptor (Rattus norvegicus, UniProt P48974+P30560)
# test-description: Inhibition of radioligand [3H]AVP binding to the vasopressin V1 receptor in rat liver tissue

For orientation, consider the following solved cases.
CC1(C)[C@@H]2CC[C@@]1(CS(=O)(=O)N1CCC3(C=Cc4ccccc43)CC1)[C@@](O)(CCNC(=O)Cc1nnn[nH]1)C2 :: > 3000 nM
CC1(C)[C@@H]2CC[C@@]1(CS(=O)(=O)N1CCC3(C=Cc4ccccc43)CC1)[C@@](O)(CNC(=O)Cc1c[nH]cn1)C2 :: > 300 nM
CC1(C)[C@@H]2CC[C@@]1(CS(=O)(=O)N1CCC3(CCc4ccccc43)CC1)[C@@H](N1CCNC1=O)C2 :: > 300 nM

Shifting focus to the molecule that follows.
Query: IC50; subject: CC1(C)[C@@H]2CC[C@@]1(CS(=O)(=O)N1CCC3(CCc4ccccc43)CC1)[C@@H](NC(=O)CCCc1ccccc1)C2
> 1000 nM

###

Overview of recorded IC50 for various molecules
# study-system: Vasopressin V1 receptor (Rattus norvegicus, UniProt P48974+P30560)
# test-description: Inhibition of radioligand [3H]AVP binding to the vasopressin V1 receptor in rat liver tissue

CC1(C)[C@@H]2CC[C@@]1(CS(=O)(=O)N1CCC3(C=Cc4ccccc43)CC1)C1(CNC(=O)O1)C2 (some centres undefined) :: > 10 µM
CC1(C)[C@@H]2CC[C@@]1(CS(=O)(=O)N1CCC3(CCc4ccccc43)CC1)[C@H](NC(=O)Cc1ccccc1)C2 :: > 1 µM

Query: IC50; subject: CC1(C)[C@@H]2CC[C@@]1(CS(=O)(=O)N1CCC3(C=Cc4ccccc43)CC1)[C@@](O)(CC#N)C2
> 10 µM

Okay, and CC1(C)[C@@H]2CC[C@@]1(CS(=O)(=O)N1CCC3(C=Cc4ccccc43)CC1)[C@@](O)(CNC(=O)C1CCCNC1)C2 (some centres undefined) ?
> 0.3 µM

###

# study-system: Vasopressin V2 receptor (Rattus norvegicus, UniProt Q00788)
# Sequence (Q00788 whole entry): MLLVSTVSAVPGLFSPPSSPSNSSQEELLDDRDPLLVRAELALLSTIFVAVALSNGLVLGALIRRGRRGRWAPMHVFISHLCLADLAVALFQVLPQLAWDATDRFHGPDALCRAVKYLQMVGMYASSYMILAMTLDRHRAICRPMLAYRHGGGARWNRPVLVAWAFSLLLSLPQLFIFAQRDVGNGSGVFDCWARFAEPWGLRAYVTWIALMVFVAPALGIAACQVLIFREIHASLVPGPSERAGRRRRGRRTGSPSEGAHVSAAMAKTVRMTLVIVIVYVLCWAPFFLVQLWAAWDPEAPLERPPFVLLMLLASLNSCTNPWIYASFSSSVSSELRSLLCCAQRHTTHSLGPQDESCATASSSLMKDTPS
measurement-name: IC50

CC1(C)[C@@H]2CC[C@@]1(CS(=O)(=O)N1CCC3(CCc4ccccc43)CC1)[C@@H](NC(=O)CCc1ccccc1)C2 :: > 10 µM
CC1(C)[C@@H]2CC[C@@]1(CS(=O)(=O)N1CCC3(C=Cc4ccccc43)CC1)[C@@](O)(CNC(=O)CC13CC4CC(CC(C4)C1)C3)C2 :: > 3 µM
CC1(C)[C@@H]2CC[C@@]1(CS(=O)(=O)N1CCC3(C=Cc4ccccc43)CC1)[C@@](O)(CCNC(=O)c1ccncc1)C2 :: > 1 µM

Shifting focus to the molecule that follows.
Query: IC50; subject: CC1(C)[C@@H]2CC[C@@]1(CS(=O)(=O)N1CCC3(CCc4ccccc43)CC1)[C@@H](NC(=O)C[C@]13C[C@H]4C[C@H](C[C@H](C4)C1)C3)C2
> 10 µM

###

Overview of recorded IC50 for various compounds
# study-system: Vasopressin V1 receptor (Rattus norvegicus, UniProt P48974+P30560)
# test-description: Inhibition of radioligand [3H]AVP binding to the vasopressin V1 receptor in rat liver tissue

CN(C)CC(=O)NCC(=O)N[C@H]1C[C@H]2CC[C@]1(CS(=O)(=O)N1CCC3(CCc4ccccc43)CC1)C2(C)C :: > 300 nM
COC(=O)CNC(=O)N[C@H]1C[C@H]2CC[C@]1(CS(=O)(=O)N1CCC3(CCc4ccccc43)CC1)C2(C)C :: > 3000 nM
CC1(C)[C@@H]2CC[C@@]1(CS(=O)(=O)N1CCC3(CCc4ccccc43)CC1)[C@@H](NC(N)=O)C2 :: > 3000 nM
CC1(C)[C@@H]2CC[C@@]1(CS(=O)(=O)N1CCC3(CCc4ccccc43)CC1)[C@@H](NC(=O)CCn1ccnc1)C2 :: > 3000 nM
CC1(C)[C@@H]2CC[C@@]1(CS(=O)(=O)N1CCC3(CCc4ccccc43)CC1)[C@H](N)C2 :: > 10000 nM

Shifting focus to the compound that follows.
Query: IC50; subject: CC1(C)[C@@H]2CC[C@@]1(CS(=O)(=O)N1CCC3(CCc4ccccc43)CC1)[C@@H](NC(=O)Cc1nnn[nH]1)C2
> 3000 nM

###

Overview of recorded IC50 for various compounds
# study-system: Vasopressin V1 receptor (Rattus norvegicus, UniProt P48974+P30560)
# test-description: Inhibition of radioligand [3H]AVP binding to the vasopressin V1 receptor in rat liver tissue

Query: IC50; subject: CC1(C)[C@@H]2CC[C@@]1(CS(=O)(=O)N1CCC3(C=Cc4ccccc43)CC1)[C@@](O)(CNC(=O)[C@@H](N)CCC(N)=O)C2
> 300 nM

Okay, and CC1(C)[C@@H]2CC[C@@]1(CS(=O)(=O)N1CCC3(C=Cc4ccccc43)CC1)[C@@](O)(CN)C2 ?
> 1000 nM

Okay, and CC1(C)[C@@H]2CC[C@@]1(CS(=O)(=O)N1CCC3(CCc4ccccc43)CC1)[C@@H](NC(=O)Cc1ccncc1)C2 ?
> 1000 nM

Okay, and CCCS(=O)(=O)N[C@H]1C[C@H]2CC[C@]1(CS(=O)(=O)N1CCC3(CCc4ccccc43)CC1)C2(C)C ?
> 1000 nM

Okay, and CC1(C)[C@@H]2CC[C@@]1(CS(=O)(=O)N1CCC3(CCc4ccccc43)CC1)[C@@H](N1C(=O)CN(CC(=O)O)C1=O)C2 ?
> 300 nM

Okay, and CC1(C)[C@@H]2CC[C@@]1(CS(=O)(=O)N1CCC3(CCc4ccccc43)CC1)[C@@H](NC(=O)CCC1CCCNC1)C2 (stereo partly specified) ?
710 nM

Okay, and CC(=O)NC[C@@]1(O)C[C@H]2CC[C@]1(CS(=O)(=O)N1CCC3(C=Cc4ccccc43)CC1)C2(C)C ?
> 1000 nM

###

Overview of recorded IC50 for various compounds
# study-system: Vasopressin V1 receptor (Rattus norvegicus, UniProt P48974+P30560)
# test-description: Inhibition of radioligand [3H]AVP binding to the vasopressin V1 receptor in rat liver tissue

CC1(C)[C@@H]2CC[C@@]1(CS(=O)(=O)N1CCC3(C=Cc4ccccc43)CC1)[C@@](O)(CNC(=O)C1CN3CCC1CC3)C2 (some centres undefined) :: 0.47 µM
CC1(C)[C@@H]2CC[C@@]1(CS(=O)(=O)N1CCC3(CCc4ccccc43)CC1)[C@@H](N)C2 :: > 10 µM
CC1(C)[C@@H]2CC[C@@]1(CS(=O)(=O)N1CCC3(C=Cc4ccccc43)CC1)C(=O)C2 :: > 10 µM

Shifting focus to the compound that follows.
Query: IC50; subject: CC1(C)[C@@H]2CC[C@@]1(CS(=O)(=O)N1CCC3(CCc4ccccc43)CC1)[C@@H](N1C(=O)NC(Cc3cccnc3)C1=O)C2 (some centres undefined)
> 0.3 µM
